B1: MATN2 (parent)
chain: FSLKTFKRKSEVERAVKRMRHLST

variants of: B1; experiment: protein stability index of a GFP-peptide fusion (GPS, HEK-293T) (PSI 1-6); higher = more stable; conditions: c terminus: a fixed tail appended;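 further: lentivirally expressed fusions sorted by FACS into six bins by GFP to DsRed ratio, PSI derived from sequencing read proportions per bin multiplied by bin number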
endpoint: protein stability index
One number for each entry.

E13F = 2.08

Please report protein stability index for every entry that follows.
1. R18K
2. V16I
3. K4D
4. R20E
5. K9P
6. K17N
7. F6I

1. 1.97
2. 2.07
3. 2.05
4. 2.54
5. 1.84
6. 2.5
7. 2.14

Please report protein stability index for every entry that follows.
1. F1R
2. V16Q

[2.37, 2.92]

Please report protein stability index for every entry that follows.
1. R8Y
2. M19S
3. V12C

2.29
2.84
2.25

Please report protein stability index for every entry that follows.
1. E11F
2. R14K
3. R14M

2.01
3.11
3.08

Please report protein stability index for every entry that follows.
1. F6Q
2. H21S
3. R8L

1. 2.85
2. 1.68
3. 2.48

Please report protein stability index for every entry that follows.
1. E13L
2. M19K
3. E13D
4. S2C
5. K17T
6. K17P
7. S23K

1: 2.28; 2: 3.67; 3: 2.52; 4: 1.5; 5: 2.34; 6: 3.24; 7: 2.64
